The following compounds are shown together with reported Ratio IC50 values.
- PROCEDURE DETAILS: Selectivity ratio of IC50 for electric eel AChE to IC50 for equine serum BChE

Input: Form field: reported Ratio IC50 of CC(C)NCc1cccc2oc3cc(O)ccc3c12
Output: 1.23

Input: Item: COc1ccc2c(c1)[nH]c1cccc(CNC(C)C)c12
Output: 5.03

Input: Item: CCNCc1cccc2oc3cc(OC)ccc3c12
Output: 0.85

Input: Item: COc1ccc2c(c1)oc1cccc(CNC(C)C)c12
Output: 0.86

----------
- TARGET SYSTEM: Acetylcholinesterase (Electrophorus electricus)
MEASUREMENT LABEL: IC50 (µM)
Your answer is read as µM, so omit the unit and give the number.

Below are worked cases with known answers.
>>> test_result("CC(C)NCc1cccc2oc3cc(O)ccc3c12")
22.6
>>> test_result("CCN(CC)Cc1cccc2oc3cc(OC)ccc3c12")
39.1

Input: Given the entry CC(C)NCc1cccc2[nH]c3cc(O)ccc3c12 , what IC50 was observed with Acetylcholinesterase (Electrophorus electricus)?
Output: 43.5

----------
- TARGET SYSTEM: Cholinesterase (Equus caballus, UniProt P81908)
- Sequence (P81908 whole entry): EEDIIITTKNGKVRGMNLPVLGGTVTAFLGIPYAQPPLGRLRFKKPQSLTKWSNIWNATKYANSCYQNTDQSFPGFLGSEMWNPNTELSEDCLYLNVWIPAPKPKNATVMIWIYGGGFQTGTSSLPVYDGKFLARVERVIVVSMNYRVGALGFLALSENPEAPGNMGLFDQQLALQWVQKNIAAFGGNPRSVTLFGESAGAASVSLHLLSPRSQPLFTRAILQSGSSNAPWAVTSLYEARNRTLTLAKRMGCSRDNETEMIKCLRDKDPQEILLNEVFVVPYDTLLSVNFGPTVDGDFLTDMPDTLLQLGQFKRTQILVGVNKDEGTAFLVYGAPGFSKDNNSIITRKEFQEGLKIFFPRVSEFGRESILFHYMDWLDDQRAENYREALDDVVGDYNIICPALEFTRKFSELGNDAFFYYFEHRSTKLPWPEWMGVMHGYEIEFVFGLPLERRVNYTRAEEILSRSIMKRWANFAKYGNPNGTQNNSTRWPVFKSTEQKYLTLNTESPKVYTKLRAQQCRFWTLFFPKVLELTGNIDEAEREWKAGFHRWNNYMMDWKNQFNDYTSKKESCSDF
- PROCEDURE DETAILS: Inhibition of equine serum BChE using butyrylthiocholine iodide as substrate preincubated for 5 mins followed by substrate addition measured after 5 mins by Ellman's method
MEASUREMENT LABEL: pIC50
The quantity pIC50 is defined as the negative base-10 logarithm of the molar concentration.

Below are worked cases with known answers.
>>> test_result("COc1ccc2c(c1)[nH]c1cccc(CNCc3ccccc3)c12")
4.52
>>> test_result("CCN(CC)Cc1cccc2[nH]c3cc(OC)ccc3c12")
4.83
>>> test_result("CC(C)NCc1cccc2[nH]c3cc(O)ccc3c12")
4.76
>>> test_result("CCNCc1cccc2oc3cc(OC)ccc3c12")
4.65
>>> test_result("CC(C)NCc1cccc2oc3cc(O)ccc3c12")
4.74
>>> test_result("COc1ccc2c(c1)[nH]c1cccc(CNC(C)C)c12")
5.00
>>> test_result("CCN(CC)Cc1cccc2oc3cc(OC)ccc3c12")
4.56
>>> test_result("COc1ccc2c(c1)oc1cccc(CNC(C)C)c12")
4.87

Input: Form field: reported pIC50 of COc1ccc2c(c1)oc1cccc(CNCc3ccccc3)c12
Output: 4.74

Input: Item: COc1ccc2c(c1)[nH]c1cccc(CN(C(=O)CCO[N+](=O)[O-])C(C)C)c12
Output: 5.60

----------
- PROCEDURE DETAILS: Selectivity ratio of IC50 for electric eel AChE to IC50 for equine serum BChE
MEASUREMENT LABEL: Ratio IC50
The answer should be written as a number, with no unit following it.

>>> test_result("CCN(CC)Cc1cccc2[nH]c3cc(OC)ccc3c12")
2.54
>>> test_result("COc1ccc2c(c1)[nH]c1cccc(CN(C(=O)CCO[N+](=O)[O-])C(C)C)c12")
0.88
>>> test_result("CC(C)NCc1cccc2[nH]c3cc(O)ccc3c12")
3.54

# context switch: different molecule, same Ratio IC50
Input: Form field: reported Ratio IC50 of CCN(CC)Cc1cccc2oc3cc(OC)ccc3c12
Output: 1.43

----------
Acetylcholinesterase (Electrophorus electricus, UniProt O42275) data, read-out pIC50
Sequence (O42275 whole entry): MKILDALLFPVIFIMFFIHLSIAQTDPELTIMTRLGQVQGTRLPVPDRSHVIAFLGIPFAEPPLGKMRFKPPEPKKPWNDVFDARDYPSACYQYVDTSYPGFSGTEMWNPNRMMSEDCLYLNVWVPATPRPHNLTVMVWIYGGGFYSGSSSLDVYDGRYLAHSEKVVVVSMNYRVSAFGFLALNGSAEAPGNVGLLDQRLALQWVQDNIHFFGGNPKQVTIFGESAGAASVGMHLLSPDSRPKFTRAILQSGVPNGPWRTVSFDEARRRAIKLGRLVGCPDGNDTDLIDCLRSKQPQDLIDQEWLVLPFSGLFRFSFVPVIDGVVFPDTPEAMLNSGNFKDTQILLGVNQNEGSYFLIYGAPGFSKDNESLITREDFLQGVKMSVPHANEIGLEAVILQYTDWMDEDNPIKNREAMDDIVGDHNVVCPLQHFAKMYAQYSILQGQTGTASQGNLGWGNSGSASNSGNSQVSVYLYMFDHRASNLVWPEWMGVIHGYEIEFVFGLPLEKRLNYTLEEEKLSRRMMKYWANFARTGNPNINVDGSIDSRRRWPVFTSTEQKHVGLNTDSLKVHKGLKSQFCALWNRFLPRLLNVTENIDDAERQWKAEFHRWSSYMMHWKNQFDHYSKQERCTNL
The quantity pIC50 is defined as the negative base-10 logarithm of the molar concentration.

>>> test_result("COc1ccc2c(c1)[nH]c1cccc(CNC(C)C)c12")
4.29

Input: Form field: reported pIC50 of COc1ccc2c(c1)[nH]c1cccc(CN(C(=O)CCO[N+](=O)[O-])C(C)C)c12
Output: 5.66

Input: Item: COc1ccc2c(c1)oc1cccc(CNC(C)C)c12
Output: 4.94

Input: Item: CCNCc1cccc2oc3cc(OC)ccc3c12
Output: 4.72

Input: Item: CCN(CC)Cc1cccc2[nH]c3cc(OC)ccc3c12
Output: 4.42
